From: patent US7507729B2

molecular target: GABA A receptor α1β3γ2 (hα1) (Homo sapiens, UniProt P14867+P18507); construct: expressed in transfected cells; host or cells: HEK293, transiently transfected; membranes; test: [3H]flumazenil competition binding, membranes of HEK293 cells expressing human GABA A α1β3γ2; conditions: [3H]flumazenil 1 nM, 1 hour at 4° C., means of two determinations; read-out: Ki[nM] hα1
Hi! Just check whether Ki is below 200 nM. Below gives met, equal or above gives not met.

compound | assigned.category
O=C1OCCN1Cc1nc2n(n1)Cc1c(Cl)ncn1-c1ccc(Cl)cc1-2 | met
Cc1cc(Cc2nc3n(n2)Cc2c(C)ncn2-c2ccc(Cl)cc2-3)on1 | not met
Cc1ncn2c1Cn1nc(Cn3ccnn3)nc1-c1cc(Cl)ccc1-2 | met
Cc1cc(Cc2nc3n(n2)Cc2c(C)ncn2-c2ccc(Br)cc2-3)on1 | met
O=C1CCC(=O)N1Cc1nc2n(n1)Cc1c(Cl)ncn1-c1ccc(Br)cc1-2 | met

Query :: Lab note: confirm whether the reported Ki for this compound is below 200 nM, equality not counting. compound: O=C1NCCN1Cc1nc2n(n1)Cc1c(Cl)ncn1-c1ccc(Br)cc1-2
Result :: met

Query :: Lab note: confirm whether the reported Ki for this compound is below 200 nM, equality not counting. compound: COCC1CN(Cc2nc3n(n2)Cc2c(Cl)ncn2-c2ccc(Br)cc2-3)C(=O)O1 (stereo not shown)
Result :: met

Query :: Lab note: confirm whether the reported Ki for this compound is below 200 nM, equality not counting. compound: OC(c1cccnc1)c1nc2n(n1)Cc1c(Cl)ncn1-c1ccc(Br)cc1-2 (stereo not shown)
Result :: met

Query :: Lab note: confirm whether the reported Ki for this compound is below 200 nM, equality not counting. compound: Clc1ccc2c(c1)-c1nc(Cn3nc4ccccc4n3)nn1Cc1c(Cl)ncn1-2
Result :: met

Query :: Lab note: confirm whether the reported Ki for this compound is below 200 nM, equality not counting. compound: Cc1ncn2c1Cn1nc(Cn3ccnn3)nc1-c1cc(Br)ccc1-2
Result :: met
